Measured values drawn from PubChem BioAssay (NCI) for this set.

Tested on: MCF7 breast
Assay: NCI-60 one-dose screen, 48 h (100 = growth as untreated, 0 = no growth, -100 = all killed)
Details: 10 µM unless noted
Protocol: Growth inhibition of the MCF7 human tumor cell line is measured as a screen for anti-cancer activity. Cells are grown in 96 well plates and exposed to the test compound for 48 hours. Compounds are tested at a single concentration, which is 10^-5 M for most compounds. The reported endpoint is percent growth (GI% or GIPRCNT), where numbers from 0 - 100% represent growth inhibition, and numbers from -100% - 0 represent cell death. For example, a value of 40 represents 60% growth inhibition. […]
About 83,000 compounds went through this panel and 20% of them were active in at least one assay; those are over-represented in the sample as a whole.
readout_kind: growth (%)
Give the quantity in %, number only.

Endpoint output: growth of "O=c1c(/C=C/c2c(O)ccc3ccccc23)nnc2sc(-c3cccc([N+](=O)[O-])c3)nn12" . Value?
27.4

// query growth value for entry COc1cc2c(c(OC)c1OC)CCC(c1cccc(C(=O)Nc3ccc([N+](=O)[O-])cc3)c1)O2 (stereo not given)
45.9

What value of growth has been recorded for this entry: CC(Cc1cccc2ccccc12)C(N)=O (stereo not given)
93

// returns reported growth for input "O=C(Nc1ncc(Cc2ccccc2)s1)c1cc(-c2ccccc2)nc2ccccc12"
91.1

So what does the record say about growth for "Cc1cc2c(C(C)C)c(O)c(O)c(/C=N/O)c2c(O)c1-c1c(C)cc2c(C(C)C)c(O)c(O)c(/C=N/O)c2c1O" ?
15.3

---
Requested read-out: growth. Entry: "O=C(Nc1ccc2[nH]ncc2c1)c1csc(Nc2ccccc2)n1"
14.1

# lookup: growth of "Cc1c2cnccc2c(C)c2c1c1cc(C(=O)O)ccc1n2C"
1.28

// returns reported growth for input "CCCCCCC/C=N/NC(=O)c1ccc(-n2cc(-c3ccccc3)nn2)cc1"
85.9

Param item = "Cc1c2ccncc2c(C)c2c1c1ccccc1n2CCCCCC(=O)O" ; retrieve measured growth.
77.6

Value lookup for growth; key = "CCOC(=O)c1c(C)n2c(=O)cc(C)c3c(OC(C)=O)c(OC(C)=O)cc1c32"
62.2

* * *

Test system: SK-MEL-28 melanoma
Assay: NCI-60 one-dose screen, 48 h (100 = growth as untreated, 0 = no growth, -100 = all killed)
Details: 10 µM unless noted
Compounds without any hit were thinned out: in the full panel of roughly 83,000, 20% have a hit.
readout_kind: growth (%)
Return type: number; implicit unit %.

Find the recorded growth belonging to "COc1cccc(/C=C/C(=O)/C=C(/C=C/c2cccc(OC)c2OC)OB(F)F)c1OC" and report it.
50.7

New cases:
Please give the measured growth for this compound: CCOC(=O)CC1C(CNC(=O)NC)OC(n2cnc3c(NC(=O)Nc4ccccc4)ncnc32)C1O[Si](C)(C)C(C)(C)C (stereo not given)
83.9

Entry under review: "O=C(/C=C/c1ccc(Cl)cc1)c1ccc(Nc2ccnc3cc(Cl)ccc23)cc1" . Reported growth?
104

Requested field: growth. Item: "CCOC(=O)c1c2c(n3ccc(NC(=O)CCN4CCCC4)cc13)C(=O)c1ncccc1C2=O"
96.4

// returns reported growth for input "O=C1Nc2ccccc2/C1=C/c1cccn1CCCCCCn1c2ccccc2c(=O)c2ccccc21"
111

* * *

Test system: SK-MEL-5 melanoma
Assay: NCI-60 one-dose screen, 48 h
Conditions: 10 µM unless noted
This is part of a sample that, as a whole, favours compounds with a hit. Of some 83,000 tested, about 20% had one in any assay. Calls of active or inactive are those of the source. How the source made its calls: active means growth percent below 10; inactive means the rest.
# output must be one of y for active, n for inactive

Here are 2 molecules together with their reported answers.
Could you kindly confirm the outcome this assay logged for "Cn1cc(-c2nc(-c3c[nH]c4ccncc34)cs2)c2cc(F)ccc21" ?
y

Identify the outcome logged in this assay for the molecule shown: "CN1CCN(Cc2ccc(NC(=O)c3cc(C#Cc4cnc(N)c5ncccc45)n(C)n3)cc2C(F)(F)F)CC1"
n

Further cases:
For "CN1CCN(Cc2ccc(NC(=O)c3cncc(C#Cc4c(N)ncc5ccccc45)c3)cc2C(F)(F)F)CC1" , which call appears in the assay record?
y

Could you please tell me the result logged for "Cn1ncc(CC(=O)O)c1-n1nnc2cc(Cl)ccc2c1=O" in this assay?
n

Name the outcome recorded for "CCOC(=O)c1c(Nc2nc3ccccc3s2)sc2c1CCC(=O)C2" in the assay.
n

What did the test return for "COC(=O)c1sc(-c2ccc(C)cc2)cc1O" ?
n

Hi, do you know how "O=C1/C(=C/c2cccc([N+](=O)[O-])c2)COc2ccc(O)c(O)c21" came out in this test?
n

Tell me the recorded outcome of this test for "N#C/C(Sc1nc2sc3c(c2c(=O)n1Cc1ccccc1)CCCC3)=C1/SC=C(c2ccc(Cl)cc2)N1c1ccccc1" .
n

Hi, sorry to bother you, what did the test record for "CNC1=C(Br)C(=O)c2c(C(=O)OC)c(C)nc(C)c2C1=O" ?
y

Tell me the recorded outcome of this test for "Clc1ccc2c(NCCCn3cnc4c(N5CCCC5)nc(Cl)nc43)ccnc2c1" .
n

Status in this test for "C=CC(=O)Nc1ccc2ncnc(Nc3cccc(NS(=O)(=O)CCC)c3Cl)c2c1" ?
n

// return assay outcome for "Oc1ccc(C(c2ccc(O)cc2)c2ccc(Cl)cn2)cc1"
n

How was "Cc1cc(C(=O)Nc2cc(Nc3ncccc3-c3ncnc4nc[nH]c34)ccc2F)cc(C(C)(C)C#N)c1" classified in this test?
n

Hi team, can someone confirm the assay call for COc1cc2c(c(OC)c1OC)CCC(c1cccc(NC(=O)c3cccc(Cl)c3)c1)O2 (stereo not given) ?
n

What did the test return for "C=CCn1c(SCC(=O)Nc2ccc(C(=O)/C=C/c3ccc(Cl)cc3)cc2)nnc1-c1ccccc1" ?
n

For this molecule, state the assay outcome: "COc1ccc(NC(=O)c2sc3nc(C)c(C(=O)c4ccccc4)cc3c2N)cc1"
n

Short answer needed: outcome of this test for Clc1nc(N2CCC[N+]3(CC2)CC[N+]2(CCCNCC2)CC3)nc(N2CCC[N+]3(CC2)CC[N+]2(CCCNCC2)CC3)n1 (stereo not given) ?
n

What call does the record list for Cc1[nH]c(C(=O)Nc2ccccc2OC2CCNC2)c(Cl)c1Cl (stereo not given) ?
n

Field: outcome | Entry: "O=C1C(Nc2ccc(Br)cc2)=C(I)C(=O)c2ncccc21"
y

Recorded test call requested for "COc1cccc(CNc2nnc(C)c(C)n2)c1O"
n

Status in this test for "FC(F)(F)c1cccc(-c2nnn(Cc3cc(-c4cccc(Cl)c4)no3)n2)c1" ?
n

Called result for "COc1ccc(CNc2ccc3nc(CCC4CCCCC4)[nH]c3c2)cc1"
n
